Quick list: ELISA fold over background per entry.
- System under test: T1, COVID S1 RBD Fc fusion (Antigen 1) (SARS-CoV-2, UniProt P0DTC2 319-541)
- T1 construct: domain: RBD
- Protocol details: phage ELISA
Parameter measured: ELISA fold over background

# Binder, Result
rows = [
    ("1-10 (antibody, V domains shown, also called variant 1-10) VH: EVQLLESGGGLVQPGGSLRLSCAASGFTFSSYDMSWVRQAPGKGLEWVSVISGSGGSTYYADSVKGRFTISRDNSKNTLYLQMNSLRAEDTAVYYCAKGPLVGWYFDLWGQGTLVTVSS VL: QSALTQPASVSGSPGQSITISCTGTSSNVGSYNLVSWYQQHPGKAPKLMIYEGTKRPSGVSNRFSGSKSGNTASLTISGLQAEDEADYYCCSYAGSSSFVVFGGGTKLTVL", "17.4 fold over background"),
    ("1-24 (antibody, V domains shown, also called variant 1-24) VH: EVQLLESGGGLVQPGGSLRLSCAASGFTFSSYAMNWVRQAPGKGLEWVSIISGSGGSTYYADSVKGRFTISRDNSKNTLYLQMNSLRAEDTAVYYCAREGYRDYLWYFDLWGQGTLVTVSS VL: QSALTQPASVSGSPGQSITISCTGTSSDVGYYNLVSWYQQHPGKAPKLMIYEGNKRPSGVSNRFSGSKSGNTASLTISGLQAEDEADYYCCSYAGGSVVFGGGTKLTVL", "11 fold over background"),
]
